# Subject Of Test: Factor X, P00742
# Sequence (P00742 whole entry, looked up): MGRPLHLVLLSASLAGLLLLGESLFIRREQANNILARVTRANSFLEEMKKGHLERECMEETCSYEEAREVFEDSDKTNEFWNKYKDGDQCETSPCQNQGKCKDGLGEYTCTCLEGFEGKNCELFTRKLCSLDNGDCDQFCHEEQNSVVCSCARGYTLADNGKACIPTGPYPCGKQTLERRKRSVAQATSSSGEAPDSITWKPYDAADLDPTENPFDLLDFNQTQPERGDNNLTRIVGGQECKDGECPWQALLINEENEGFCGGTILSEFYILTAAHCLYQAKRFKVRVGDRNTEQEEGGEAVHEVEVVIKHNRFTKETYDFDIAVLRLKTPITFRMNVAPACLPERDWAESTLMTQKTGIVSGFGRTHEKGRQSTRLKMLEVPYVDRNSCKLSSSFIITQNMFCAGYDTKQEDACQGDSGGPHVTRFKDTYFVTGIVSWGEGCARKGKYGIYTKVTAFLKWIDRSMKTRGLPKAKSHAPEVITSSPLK
Reported Endpoint: KM (FX activation by FIXa in Xase complex with FVIIIa, PC/PS vesicles, Ca2+) (nM)
Write the value in nM as a bare number.

For record FIXa Y155F/K247N/N249S/N260S (protein) chain 1: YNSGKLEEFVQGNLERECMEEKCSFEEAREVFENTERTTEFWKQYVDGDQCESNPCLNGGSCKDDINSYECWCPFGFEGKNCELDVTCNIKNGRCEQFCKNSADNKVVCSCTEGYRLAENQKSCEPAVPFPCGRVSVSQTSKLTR chain 2: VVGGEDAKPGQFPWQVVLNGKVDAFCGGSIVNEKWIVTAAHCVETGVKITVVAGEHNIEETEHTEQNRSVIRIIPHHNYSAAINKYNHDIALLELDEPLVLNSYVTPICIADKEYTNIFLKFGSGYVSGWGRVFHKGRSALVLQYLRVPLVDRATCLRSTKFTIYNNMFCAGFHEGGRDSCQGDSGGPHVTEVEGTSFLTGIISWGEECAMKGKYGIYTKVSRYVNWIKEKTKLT the listed KM (FX activation by FIXa in Xase complex with FVIIIa, PC/PS vesicles, Ca2+) is 96.5

Now consider the entry below.
For record FIXa R318Y/R338E/T343R/N346Y/R403E/E410N (protein) chain 1: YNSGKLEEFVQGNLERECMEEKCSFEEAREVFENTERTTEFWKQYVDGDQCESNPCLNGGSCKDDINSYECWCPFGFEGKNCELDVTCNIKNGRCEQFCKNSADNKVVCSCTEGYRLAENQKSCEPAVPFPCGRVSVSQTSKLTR chain 2: VVGGEDAKPGQFPWQVVLNGKVDAFCGGSIVNEKWIVTAAHCVETGVKITVVAGEHNIEETEHTEQKRNVIRIIPHHNYNAAINKYNHDIALLELDEPLVLNSYVTPICIADKEYTNIFLKFGSGYVSGWGRVFHKGYSALVLQYLRVPLVDRATCLESTKFRIYYNMFCAGFHEGGRDSCQGDSGGPHVTEVEGTSFLTGIISWGEECAMKGKYGIYTKVSEYVNWIKNKTKLT the listed KM (FX activation by FIXa in Xase complex with FVIIIa, PC/PS vesicles, Ca2+) is 15.8

The reported numbers originate from patent US20210238260.
